The reported measurements were obtained from patent US12503438B2.

assayed-target: Mer (Homo sapiens)
Sequence (Q12866 21-999): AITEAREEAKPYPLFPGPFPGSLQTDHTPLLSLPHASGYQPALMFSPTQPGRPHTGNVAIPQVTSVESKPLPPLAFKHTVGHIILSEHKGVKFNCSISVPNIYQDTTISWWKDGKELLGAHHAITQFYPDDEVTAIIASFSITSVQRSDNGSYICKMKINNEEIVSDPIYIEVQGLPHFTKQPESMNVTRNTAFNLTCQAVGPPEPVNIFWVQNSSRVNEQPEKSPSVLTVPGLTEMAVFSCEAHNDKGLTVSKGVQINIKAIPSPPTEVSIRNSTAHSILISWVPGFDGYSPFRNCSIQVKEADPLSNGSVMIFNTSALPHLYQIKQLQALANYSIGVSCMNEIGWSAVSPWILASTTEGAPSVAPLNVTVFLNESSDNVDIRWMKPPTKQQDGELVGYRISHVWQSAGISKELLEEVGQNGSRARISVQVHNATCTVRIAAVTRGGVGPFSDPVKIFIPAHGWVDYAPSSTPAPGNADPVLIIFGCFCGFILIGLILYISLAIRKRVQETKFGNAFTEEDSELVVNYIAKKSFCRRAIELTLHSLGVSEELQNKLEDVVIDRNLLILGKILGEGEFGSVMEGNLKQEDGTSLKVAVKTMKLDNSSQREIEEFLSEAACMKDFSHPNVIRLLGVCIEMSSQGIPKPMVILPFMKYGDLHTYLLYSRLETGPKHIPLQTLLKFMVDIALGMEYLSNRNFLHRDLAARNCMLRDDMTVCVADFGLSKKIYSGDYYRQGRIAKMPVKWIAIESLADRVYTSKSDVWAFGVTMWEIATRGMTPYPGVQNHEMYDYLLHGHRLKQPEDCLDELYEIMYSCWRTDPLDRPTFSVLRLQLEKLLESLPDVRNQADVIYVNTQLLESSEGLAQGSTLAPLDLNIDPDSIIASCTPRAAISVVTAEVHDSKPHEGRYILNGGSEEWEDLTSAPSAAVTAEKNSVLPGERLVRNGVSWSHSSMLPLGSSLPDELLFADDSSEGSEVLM
assay-explanation: Mer autophosphorylation ELISA in transient transfected 293A cells
condition-parameters: cellular activity; MERTK-transfected 293A cells, phospho-Mer ELISA
measurement-type: IC50

Known IC50 results, listed for orientation:
>>> df
                                   molecule        reading
0  O=C(Nc1ccc(F)cc1)C1(C(=O)Nc2ccc(Oc3ccnc4cc(-c5cccnc5)ccc34)c(F)c2)CC1 [Compound 113]   10 to 100 nM
1  O=C(Nc1ccc(F)cc1)C1(C(=O)Nc2ccc(Oc3ccnc4cc(-c5cnoc5)ccc34)cc2)CC1 [Compound 57]   10 to 100 nM
2  O=C(Nc1ccc(F)cc1)C1(C(=O)Nc2cc(F)c(Oc3ccnc4cc(-c5cccnc5)ccc34)cc2F)CC1 [Compound 115]   10 to 100 nM
3  O=C(Nc1ccc(F)cc1)C1(C(=O)Nc2ccc(Oc3ccnc4cc(C5CCNC5)ccc34)cc2)CC1 (centres unmarked) [Compound 83]  100 to 300 nM
4  O=C(Nc1ccc(F)cc1)C1(C(=O)Nc2ccc(Oc3ccnc4cc(-c5cncc(F)c5)ccc34)cc2)CC1 [Compound 45]   10 to 100 nM

Reported IC50 ( Cn1cc(-c2ccc3c(Oc4ccc(NC(=O)C5(C(=O)Nc6ccc(F)cc6)CC5)cc4)ccnc3c2)ccc1=O [Compound 119] ) = 10 to 100 nM

Reported IC50 ( O=C(Nc1ccc(F)cc1)C1(C(=O)Nc2ccc(Oc3ccnc4cc(-c5cnn(C(F)F)c5)ccc34)c(F)c2)CC1 [Compound 123] ) = 10 to 100 nM

Reported IC50 ( O=C(Nc1ccc(F)cc1)C1(C(=O)Nc2ccc(Oc3ccnc4cc(-c5cnn(CC(F)F)c5)ccc34)cc2)CC1 [Compound 15] ) = ≤ 10 nM

Reported IC50 ( CS(=O)(=O)N1CCC(c2ccc3c(Oc4ccc(NC(=O)C5(C(=O)Nc6ccc(F)cc6)CC5)cc4)ccnc3c2)C1 (centres unmarked) [Compound 93] ) = 100 to 300 nM

Reported IC50 ( Nc1cc(-c2ccc3c(Oc4ccc(NC(=O)C5(C(=O)Nc6ccc(F)cc6)CC5)cc4)ccnc3c2)ccn1 [Compound 97] ) = ≤ 10 nM

Reported IC50 ( Cc1cnn(-c2ccc3c(Oc4ccc(NC(=O)C5(C(=O)Nc6ccc(F)cc6)CC5)cc4)ccnc3c2)c1 [Compound 96] ) = 10 to 100 nM
